Origin of measurements: patent US11413278B2

Recorded fold induction at 10 µM values for a group of compounds are listed next.
tested on: NRF2; assay: qPCR analysis of NRF2-regulated genes; type: cell-based, human; settings: Homo sapiens, 24 h; Assay 12(o); at 10 uM, qPCR; read-out: Induction of NRF2-regulated genes: NQO1 normalized fold-change
property name: fold induction at 10 µM

[[record]]
compound = "O=C(/C(=C/c1ccc(Cl)cc1)c1nc2ccccc2[nH]1)c1ccccc1"
property_name = "fold induction at 10 µM"
test_value = 2.56

[[record]]
compound = "CCc1ccc(Oc2nc3ccccn3c(=O)c2/C=C(\\C#N)C(=O)NCc2ccco2)cc1"
property_name = "fold induction at 10 µM"
test_value = 1.94

[[record]]
compound = "CCCC(=O)Nc1ccc(-c2cn3cccc(C)c3n2)cc1"
property_name = "fold induction at 10 µM"
test_value = 0.66

[[record]]
compound = "O=C(NCc1cccnc1)/C(=C\\c1cccc(Oc2ccccc2)c1)S(=O)(=O)c1ccccc1"
property_name = "fold induction at 10 µM"
test_value = 0.78

[[record]]
compound = "O=C(Nc1cc(C(F)(F)F)ccc1Cl)c1ccc([N+](=O)[O-])o1"
property_name = "fold induction at 10 µM"
test_value = 1.19

[[record]]
compound = "COc1cccc(/C=C2\\CN(C)C/C(=C\\c3cccc(OC)c3OC)C2=O)c1OC"
property_name = "fold induction at 10 µM"
test_value = 0.48

[[record]]
compound = "CC1C(=O)C(C)C(c2cc(Cl)ccc2O)NC1c1cc(Cl)ccc1O (centres unmarked)"
property_name = "fold induction at 10 µM"
test_value = 1.62

[[record]]
compound = "COc1cc(-c2nc(C(N)=O)c3nc(O)n(-c4cccc(C)c4)c3n2)cc(Br)c1O"
property_name = "fold induction at 10 µM"
test_value = 1.32

[[record]]
compound = "CCc1ccc(Oc2nc3ccccn3c(=O)c2/C=C(\\C#N)C(=O)NC2CCCCC2)cc1"
property_name = "fold induction at 10 µM"
test_value = 1.55

[[record]]
compound = "Cc1sc2nc(SCC(=O)N3CCOCC3)nc(O)c2c1C"
property_name = "fold induction at 10 µM"
test_value = 1.21

[[record]]
compound = "CCCN1C/C(=C\\c2ccc(F)cc2)C(=O)/C(=C/c2ccc(F)cc2)C1"
property_name = "fold induction at 10 µM"
test_value = 1.6

[[record]]
compound = "COc1ccc(C(=O)/C=C/c2cccc(Cl)c2)c(OC)c1"
property_name = "fold induction at 10 µM"
test_value = 5

[[record]]
compound = "Cc1cc(C)c(C(=O)/C=C/c2ccccc2F)c(O)n1"
property_name = "fold induction at 10 µM"
test_value = 2.94

[[record]]
compound = "O=C(CC1(O)C(=O)Nc2ccc(Br)cc21)c1ccc(Cl)cc1 (centres unmarked)"
property_name = "fold induction at 10 µM"
test_value = 1.91

[[record]]
compound = "Oc1nc(-c2ccccn2)nc2c1Cc1cc(F)ccc1O2"
property_name = "fold induction at 10 µM"
test_value = 1.48

[[record]]
compound = "CNC(=O)/C(C#N)=C/c1c(Oc2ccc(C(C)(C)C)cc2)nc2ccccn2c1=O"
property_name = "fold induction at 10 µM"
test_value = 1.78

[[record]]
compound = "COC(=O)CCc1sc2c(c1[N+](=O)[O-])NC(=O)CCC2"
property_name = "fold induction at 10 µM"
test_value = 2.49

[[record]]
compound = "Oc1cc(-c2ccccc2)nc2c(-c3ccc(Cl)cc3)c(Cc3ccccc3)nn12"
property_name = "fold induction at 10 µM"
test_value = 0.44

[[record]]
compound = "COc1ccc(C(=O)/C=C/c2ccc(F)cc2)c(OC)c1"
property_name = "fold induction at 10 µM"
test_value = 2.73

[[record]]
compound = "O=[N+]([O-])c1ccccc1S(=O)(=O)Nc1cccc2cccnc12"
property_name = "fold induction at 10 µM"
test_value = 1.3

[[record]]
compound = "CCc1ccccc1NC(=O)c1ccc([N+](=O)[O-])o1"
property_name = "fold induction at 10 µM"
test_value = 1.33

[[record]]
compound = "O=C(c1ccc([N+](=O)[O-])o1)N1CCc2ccccc21"
property_name = "fold induction at 10 µM"
test_value = 2.95

[[record]]
compound = "[O-][n+]1onc2c3nsnc3c(Br)cc21"
property_name = "fold induction at 10 µM"
test_value = 1.47

[[record]]
compound = "COc1ccc(C(=O)/C=C/c2ccccc2Br)c(OC)c1"
property_name = "fold induction at 10 µM"
test_value = 2.36

[[record]]
compound = "O=C(/C=C/c1cn(-c2ccccc2)nc1-c1cccnc1)c1ccccc1"
property_name = "fold induction at 10 µM"
test_value = 1.52

[[record]]
compound = "Cc1ccc(S(=O)(=O)/C(C#N)=C/c2c(Oc3ccc(Cl)c(C)c3)nc3ccccn3c2=O)cc1"
property_name = "fold induction at 10 µM"
test_value = 1.49

